- Assayed Target: human Cot/Tpl2 kinase (Homo sapiens, UniProt P41279)
- Construct: human Cot/Tpl2 kinase construct encoding residues 30-398; 6His (N); made in house; host or cells: Sf9 insect cells (baculovirus system, BD Biosciences)
- Sequence (P41279 30-398): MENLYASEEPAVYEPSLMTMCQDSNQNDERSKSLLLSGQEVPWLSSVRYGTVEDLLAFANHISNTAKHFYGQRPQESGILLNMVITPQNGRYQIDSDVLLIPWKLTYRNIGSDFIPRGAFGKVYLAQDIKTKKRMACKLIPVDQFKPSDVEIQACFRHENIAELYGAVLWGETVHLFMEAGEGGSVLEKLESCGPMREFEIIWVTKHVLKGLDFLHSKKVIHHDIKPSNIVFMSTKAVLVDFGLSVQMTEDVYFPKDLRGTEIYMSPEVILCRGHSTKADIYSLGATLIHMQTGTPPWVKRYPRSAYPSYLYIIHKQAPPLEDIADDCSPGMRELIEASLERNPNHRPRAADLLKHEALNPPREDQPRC
- Protocol Description: Tpl2/Cot kinase assay, GST-MEK1 phosphorylation detected by ELISA (DELFIA Eu)
- Type: biochemical
- Condition Details: Table 2; additional representative compounds
pIC50: −log10 of the molar value.
Reported Property: pIC50

Consider the following illustrative entries.
| Smiles Str | Result Number |
| --- | --- |
| C[C@@H](Nc1cc2c(NC3CCCCCC3)c(C#N)cnc2cn1)c1ccccc1 | 6.04 |
| COc1ccc(CNc2cc3c(Nc4ccc(F)c(Cl)c4)c(C#N)cnc3cn2)cc1 | 6.70 |
| N#Cc1cnc2cnc(NCc3c(Cl)cccc3Cl)cc2c1Nc1ccc(F)c(Cl)c1 | 4.61 |

I. CCC(C)(C)Nc1c(C#N)cnc2cnc(NCc3cccnc3)cc12
II. CN(c1c(C#N)cnc2cnc(F)cc12)C1CCCCCC1
III. N#Cc1cnc2cnc(F)cc2c1Nc1ccc(Oc2ccccc2)cc1
IV. N#Cc1cnc2cnc(NCc3cccnc3)cc2c1NC1CC1
Order the records by pIC50, with each subsequent value no larger than the one before. # list labels per requested ordering
I, II, IV, III
(I: 7.00, II: 6.44, IV: 5.55, III: 4.70)

====

- Assayed Target: human Cot/Tpl2 kinase (Homo sapiens, UniProt P41279)
- Construct: human Cot/Tpl2 kinase construct encoding residues 30-398; 6His (N); made in house; host or cells: Sf9 insect cells (baculovirus system, BD Biosciences)
- Protocol Description: Tpl2/Cot kinase assay, GST-MEK1 phosphorylation detected by ELISA (DELFIA Eu)
- Assay type: biochemical
- Condition Details: Table 1; 0.4 nM Tpl2, 35 nM GST-MEK1, 50 uM ATP, 1 h at 30° C.
Counter-ions that a name gives are not always drawn.
Reported Property: IC50 (µM)

Past entries and their recorded results:
| Compound | IC50 [µM] |
| --- | --- |
| N#Cc1cnc2cnc(NCCN3CCNCC3)cc2c1Nc1ccc(Cc2ccccc2)cc1 [Example 25, hydrochloride salt] | 0.038 |
| C[C@@H](Nc1cc2c(Nc3ccc(F)c(Cl)c3)c(C#N)cnc2cn1)[C@@H](O)c1ccccc1 | 7 |
| N#Cc1cnc2cnc(NCCCN3CCOCC3)cc2c1Nc1ccc(F)c(Cl)c1 | 3 |

a. N#Cc1cnc2cnc(N[C@H]3CCc4ccccc43)cc2c1Nc1ccc(F)c(Cl)c1
b. N#Cc1cnc2cnc(NCc3cccnc3)cc2c1Nc1ccccc1
Determine, for a and b , which has the greater value of IC50. Write down the label of the entry you select.
a

a. N#Cc1cnc2cnc(NCCN3CCOCC3)cc2c1Nc1cccc(Oc2ccccc2)c1
b. C[C@@H](O)CNc1cc2c(Nc3ccc(F)c(Cl)c3)c(C#N)cnc2cn1
// max by IC50 over [ a , b ] Pick one and reply with its label.
a
(a: 11.6 µM, b: 1.5 µM)

====

Entries and their pIC50 values follow.
- Assayed Target: human Cot/Tpl2 kinase (Homo sapiens, UniProt P41279)
- Construct: human Cot/Tpl2 kinase construct encoding residues 30-398; 6His (N); made in house; host or cells: Sf9 insect cells (baculovirus system, BD Biosciences)
- Protocol Description: Tpl2/Cot kinase assay, GST-MEK1 phosphorylation detected by ELISA (DELFIA Eu)
- Format: biochemical
- Condition Details: Table 1; 0.4 nM Tpl2, 35 nM GST-MEK1, 50 uM ATP, 1 h at 30° C.
pIC50: −log10 of the molar value.

Study these solved cases before continuing.
| Smiles Str | Assayed Target | Reported Property | Result |
| --- | --- | --- | --- |
| COC(=O)c1ccc(Nc2c(C#N)cnc3cnc(NCc4cccnc4)cc23)cc1 | human Cot/Tpl2 kinase (Homo sapiens, UniProt P41279) | pIC50 | < 4.40 |
| N#Cc1cnc2cnc(NCc3cccnc3)cc2c1Nc1cccc(OC(F)(F)F)c1 | human Cot/Tpl2 kinase (Homo sapiens, UniProt P41279) | pIC50 | < 4.40 |

Quote pIC50 reported for N#Cc1cnc2cnc(NCCN3CCOCC3)cc2c1Nc1ccc2[nH]ccc2c1 please.
< 4.40
